Provide the recorded pIC50 for the entries that follow.
Target: BaF3-ETV6-NTRK2 (Homo sapiens, UniProt Q16620)
Construct: fused on or other part: P41212 (Transcription factor ETV6)
Sequence (Q16620 538-822 limits assumed): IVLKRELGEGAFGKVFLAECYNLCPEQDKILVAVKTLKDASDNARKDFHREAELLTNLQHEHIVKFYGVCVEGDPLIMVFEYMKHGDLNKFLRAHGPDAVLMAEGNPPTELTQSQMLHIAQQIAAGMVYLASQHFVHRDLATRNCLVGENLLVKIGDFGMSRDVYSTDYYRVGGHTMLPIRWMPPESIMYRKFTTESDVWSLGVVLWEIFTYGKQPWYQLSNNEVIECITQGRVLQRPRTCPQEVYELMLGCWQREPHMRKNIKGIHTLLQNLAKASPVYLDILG
Assay: Cell proliferation inhibition (CCK-8), BaF3-ETV6-NTRK2 stable strain
Settings: BaF3-ETV6-NTRK2, 72 hours
One number for each entry, as −log10 of the molar value.

[
  {
    "molecule": "O=S(=O)(c1cc(F)cc(F)c1)c1cc2c(/C=C/c3ccccn3)n[nH]c2cn1 [DYX-149]",
    "target-of-assay": "BaF3-ETV6-NTRK2 (Homo sapiens, UniProt Q16620)",
    "reported-metric": "pIC50",
    "endpoint-value": 5.61
  }
]

I have 3 molecules here; please give me pIC50 for each one.
1. O=S(=O)(c1cc(F)cc(F)c1)c1ccc2[nH]nc(/C=C/c3ccccc3F)c2c1 [Example E01F10]
2. Fc1cc(F)cc(NCc2ccc3[nH]nc(/C=C/c4ccccn4)c3c2)c1 [DYX-191]
3. O=S(=O)(c1cc(F)cc(F)c1)c1ccc2[nH]nc(/C=C/c3ccccn3)c2n1 [DYX-150]

Ans:
[6.21, 6.18, 6.79]

---

Assay: Pharmacokinetic evaluation in SD rats
Assay type: in vivo
Conditions: Sprague-Dawley, rat, plasma, oral administration, 25 mg/kg, read-out: Half-life (converted)
reported-metric: Half-life (h)
One number for each entry, in h.

Q: Need Half-life of O=S(=O)(Nc1ccc2[nH]nc(/C=C/c3ccccn3)c2c1)c1cc(F)cc(F)c1 [DYX-165] , thanks.
Ans: 1.54

---

Molecular target: TRKC (Homo sapiens)
Sequence (Q16288 32-839): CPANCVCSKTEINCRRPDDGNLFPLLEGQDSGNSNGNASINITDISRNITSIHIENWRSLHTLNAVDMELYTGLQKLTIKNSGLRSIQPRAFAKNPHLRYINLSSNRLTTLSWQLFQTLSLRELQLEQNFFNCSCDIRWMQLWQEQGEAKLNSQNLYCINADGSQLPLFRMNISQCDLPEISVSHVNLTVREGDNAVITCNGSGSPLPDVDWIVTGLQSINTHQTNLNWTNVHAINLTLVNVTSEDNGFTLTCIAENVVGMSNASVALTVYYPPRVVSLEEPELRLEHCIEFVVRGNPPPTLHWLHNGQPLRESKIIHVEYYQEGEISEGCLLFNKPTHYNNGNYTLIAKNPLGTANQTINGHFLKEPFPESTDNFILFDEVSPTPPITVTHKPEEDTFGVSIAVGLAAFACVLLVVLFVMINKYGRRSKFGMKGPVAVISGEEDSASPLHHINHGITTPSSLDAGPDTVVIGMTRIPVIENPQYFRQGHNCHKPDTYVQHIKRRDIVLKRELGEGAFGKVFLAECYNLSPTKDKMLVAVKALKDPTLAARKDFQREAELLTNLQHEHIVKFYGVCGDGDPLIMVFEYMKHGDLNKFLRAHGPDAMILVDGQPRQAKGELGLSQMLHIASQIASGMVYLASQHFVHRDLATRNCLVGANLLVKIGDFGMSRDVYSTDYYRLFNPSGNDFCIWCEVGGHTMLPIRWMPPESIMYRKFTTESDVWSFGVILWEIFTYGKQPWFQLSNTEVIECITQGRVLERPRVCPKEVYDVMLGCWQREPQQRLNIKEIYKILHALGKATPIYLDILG
Would you mind telling me the reported pIC50 of each entry?
Answers are plain numbers, as −log10 of the molar value.

Examples with their reported pIC50 follow.
[
  {
    "structure-string": "Fc1ccc(Cc2ccc3[nH]nc(/C=C/c4ccccn4)c3c2)cc1F",
    "pIC50": 6.80
  },
  {
    "structure-string": "C[C@@H](Nc1ccc2[nH]nc(/C=C/C(=O)N3CC[C@H](O)C3)c2c1)c1cc(F)cc(F)c1",
    "pIC50": 9.10
  },
  {
    "structure-string": "Fc1cc(F)cc(Cc2ccc3[nH]nc(/C=C/c4ccc5ccccc5n4)c3c2)c1",
    "pIC50": 7.11
  },
  {
    "structure-string": "O=S(=O)(c1cc(F)cc(F)c1)c1cc2c(/C=C/c3ccccn3)n[nH]c2cn1",
    "pIC50": 6.81
  }
]

Q: Quick check: pIC50 of CN(Cc1ccc2[nH]nc(/C=C/c3ccccn3)c2c1)c1cc(F)cc(F)c1 ?
Ans: 7.48

---

Consider the following molecules; for each one, report its IC50.
Target: BaF3-CD74-NTRK1 (Homo sapiens, UniProt P04629)
Construct: fused on or other part: P04233 (HLA class II histocompatibility antigen gamma chain)
Sequence (P04629 510-796 limits assumed): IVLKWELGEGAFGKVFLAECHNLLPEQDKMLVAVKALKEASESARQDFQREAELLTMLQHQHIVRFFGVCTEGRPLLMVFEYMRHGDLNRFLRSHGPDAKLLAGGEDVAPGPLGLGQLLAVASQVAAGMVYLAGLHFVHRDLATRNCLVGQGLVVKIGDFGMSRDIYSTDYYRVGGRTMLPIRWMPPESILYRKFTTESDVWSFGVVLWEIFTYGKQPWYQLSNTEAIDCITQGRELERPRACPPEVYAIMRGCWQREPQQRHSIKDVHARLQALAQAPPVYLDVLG
Assay: Cell proliferation inhibition (CCK-8), BaF3-CD74-NTRK1 stable strain
Conditions: BaF3-CD74-NTRK1, 72 hours
Give bare numbers, in nM.

Example entries and their recorded answers appear below.
[
  {
    "molecule": "O=S(=O)(Nc1ccc2[nH]nc(/C=C/c3cccnc3)c2c1)c1cc(F)cc(F)c1",
    "IC50 [nM]": 143
  },
  {
    "molecule": "Fc1ccccc1Cc1ccc2[nH]nc(C#Cc3ccccn3)c2c1",
    "IC50 [nM]": 4930
  },
  {
    "molecule": "COc1cc(F)cc(CNc2ccc3[nH]nc(/C=C/c4ccccn4)c3c2)c1",
    "IC50 [nM]": 52.6
  },
  {
    "molecule": "N#Cc1cccc(Cc2ccc3[nH]nc(C#Cc4ccccn4)c3c2)c1 [DYX-136Q]",
    "IC50 [nM]": 4600
  }
]

Q: Missing value: IC50, BaF3-CD74-NTRK1 (Homo sapiens, UniProt P04629), entry O=S(=O)(Nc1ccc2[nH]nc(/C=C/c3ccccn3)c2c1)c1cccc(F)c1 . Fill in?
Ans: 27.3

---

Target: BaF3-CD74-NTRK1 (Homo sapiens)
Construct: fused on or other part: P04233 (HLA class II histocompatibility antigen gamma chain)
Assay: Cell proliferation inhibition (CCK-8), BaF3-CD74-NTRK1 stable strain
Conditions: BaF3-CD74-NTRK1, 72 hours
pIC50: −log10 of the molar value.
Param threshold (7) applies to pIC50; output Met when value >= threshold, Not met when value < threshold.

Here's what some known entries look like.
[
  {
    "compound": "COc1ccc(F)cc1CNc1ccc2[nH]nc(/C=C/c3ccccn3)c2c1 [DYX-418]",
    "class-assignment": "Met"
  },
  {
    "compound": "O=S(=O)(c1cc(F)cc(F)c1)c1cc2c(/C=C/c3ccccn3)n[nH]c2cn1 [DYX-149]",
    "class-assignment": "Not met"
  },
  {
    "compound": "Fc1ccccc1CNc1ccc2[nH]nc(/C=C/c3ccccn3)c2c1 [DYX-413]",
    "class-assignment": "Met"
  },
  {
    "compound": "N#Cc1cc(F)cc(CNc2ccc3[nH]nc(/C=C/c4ccccn4)c3c2)c1 [DYX-402]",
    "class-assignment": "Met"
  },
  {
    "compound": "Fc1cccc(Cc2ccc3[nH]nc(/C=C/c4ccccn4)c3c2)c1F [DYX-082]",
    "class-assignment": "Not met"
  }
]

Q: Exam item: decide whether the reported pIC50 for O=S(=O)(c1cc(F)cc(F)c1)c1ccc2[nH]nc(C#Cc3ccccn3)c2c1 [DYX-108] is at least 7.
Ans: Not met

Q: Decide: pIC50 of Fc1cc(Cc2ccc3[nH]nc(/C=C/c4ccccn4)c3c2)cc(F)c1F [DYX-083] >= 7?
Ans: Not met

---

Task for the reader: assign each of the following compounds its reported Residual percentage (%) 15 min.
Test: Rat hepatocyte stability experiment
Assay type: in vitro ADME
Details: rat hepatocytes, 15 min, average value
Numbers only, in %.

Sample records with Residual percentage (%) 15 min:
[
  {
    "compound": "C[C@@H](Nc1ccc2[nH]nc(/C=C/c3ccccn3)c2c1)c1cc(F)cc(F)c1",
    "units-of-measure": "%",
    "Residual percentage (%) 15 min": 48.63
  },
  {
    "compound": "C[C@]12CC[C@H]3[C@@H](CCC4=CC(=O)CC[C@@]43C)[C@@H]1CC[C@@H]2O [Testosterone, reference compound]",
    "units-of-measure": "%",
    "Residual percentage (%) 15 min": 5.78
  },
  {
    "compound": "O=S(=O)(Nc1ccc2[nH]nc(/C=C/c3ccccn3)c2c1)c1cc(F)cc(F)c1",
    "units-of-measure": "%",
    "Residual percentage (%) 15 min": 84.16
  }
]

Q: Given the compound C[C@@H](Nc1cnc2[nH]nc(/C=C/c3ccccn3)c2c1)c1cc(F)cc(F)c1 , what is its reported Residual percentage (%) 15 min?
Ans: 12.24

---

Target: BaF3-ETV6-NTRK2 (Homo sapiens)
Construct: fused on or other part: P41212 (Transcription factor ETV6)
Test: Cell proliferation inhibition (CCK-8), BaF3-ETV6-NTRK2 stable strain
Details: BaF3-ETV6-NTRK2, 72 hours
pIC50: −log10 of the molar value.
Category | rule: reported pIC50 within range, see Low = under 6, Mid = from 6 up to 7, High = 7 and over

Past entries and their recorded results:
[
  {
    "compound": "FC(F)(F)c1cccc(Cc2ccc3[nH]nc(C#Cc4ccccn4)c3c2)c1 [DYX-138Q]",
    "class-assignment": "Low"
  },
  {
    "compound": "CC(C)n1cc(/C=C/c2n[nH]c3ccc(NS(=O)(=O)c4cc(F)cc(F)c4)cc23)cn1 [CHW-7]",
    "class-assignment": "High"
  }
]

Q: Please classify: N#Cc1cccc(Cc2ccc3[nH]nc(C#Cc4ccccn4)c3c2)c1 [DYX-136Q]
Ans: Low

Q: Band assignment needed for O=S(=O)(Nc1ccc2[nH]nc(/C=C/c3cccnc3)c2c1)c1cc(F)cc(F)c1 [CHW-8] please.
Ans: Mid

---

Kindly state IC50 for each of the entries shown.
Molecular target: BaF3-ETV6-NTRK3 (Homo sapiens, UniProt Q16288)
Construct: fused on or other part: P41212 (Transcription factor ETV6)
Sequence (Q16288 whole entry, the tested form may be a part): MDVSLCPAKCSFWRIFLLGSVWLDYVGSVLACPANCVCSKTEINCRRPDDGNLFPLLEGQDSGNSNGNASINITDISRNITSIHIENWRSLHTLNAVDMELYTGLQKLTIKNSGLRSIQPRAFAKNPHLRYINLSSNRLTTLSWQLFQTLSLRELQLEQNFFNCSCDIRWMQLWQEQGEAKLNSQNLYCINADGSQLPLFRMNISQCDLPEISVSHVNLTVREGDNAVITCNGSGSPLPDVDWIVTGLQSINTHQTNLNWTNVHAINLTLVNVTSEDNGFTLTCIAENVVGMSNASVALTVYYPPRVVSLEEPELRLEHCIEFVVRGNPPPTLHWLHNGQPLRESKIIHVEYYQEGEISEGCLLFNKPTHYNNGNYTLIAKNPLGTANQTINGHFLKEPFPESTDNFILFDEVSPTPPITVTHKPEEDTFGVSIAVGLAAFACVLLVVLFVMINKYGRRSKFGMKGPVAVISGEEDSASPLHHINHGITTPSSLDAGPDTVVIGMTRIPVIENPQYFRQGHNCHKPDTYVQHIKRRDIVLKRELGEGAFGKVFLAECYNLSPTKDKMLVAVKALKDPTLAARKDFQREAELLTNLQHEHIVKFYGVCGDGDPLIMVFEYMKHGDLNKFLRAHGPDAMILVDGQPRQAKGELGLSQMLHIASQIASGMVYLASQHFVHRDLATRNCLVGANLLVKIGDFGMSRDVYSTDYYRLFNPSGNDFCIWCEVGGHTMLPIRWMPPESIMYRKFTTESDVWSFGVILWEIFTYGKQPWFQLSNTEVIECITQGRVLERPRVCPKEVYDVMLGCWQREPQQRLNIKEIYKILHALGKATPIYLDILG
Assay: Cell proliferation inhibition (CCK-8), BaF3-ETV6-NTRK3 stable strain
Details: BaF3-ETV6-NTRK3, 72 hours
Answers are plain numbers, in nM.

[
  {
    "structure-string": "COCCn1cc(/C=C/c2n[nH]c3ccc(NS(=O)(=O)c4cc(F)cc(F)c4)cc23)cn1",
    "units-of-measure": "nM",
    "IC50": 41.3
  }
]

Would you be so kind as to report IC50 for each listed record?
1. O=C(Nc1cc(F)cc(F)c1)c1ccc2[nH]nc(/C=C/c3ccccn3)c2c1
2. Fc1cc(F)cc(Cc2ccc3[nH]nc(/C=C/c4ccccn4)c3c2)c1
3. Fc1cc(CNc2ccc3[nH]nc(/C=C/c4ccccn4)c3c2)cc(C(F)(F)F)c1

Ans:
[2640, 56.2, 1180]
